The measurements presented in this section are drawn from the Immune Epitope Database (IEDB).

Molecular target: HLA-B*44:02
Experiment: IEDB peptide-MHC binding, purified MHC/competitive/radioactivity; bounds were set here for any values at or beyond the usual limits of such assays
Settings: source organism: Hepatitis B virus
pIC50: −log10 of the molar value.

sequence: AELLAACF
pIC50: 8.03
--
sequence: VELLSFLPSDF
pIC50: 6.52
--
sequence: AELLAACFA
pIC50: 6.48

* * *

Target: HLA-B*44:03
Assay: IEDB peptide-MHC binding, purified MHC/competitive/radioactivity; bounds were set here for any values at or beyond the usual limits of such assays
Conditions: source organism: Plasmodium falciparum
pIC50: −log10 of the molar value.
reported_property: pIC50

sequence: DEFKPIVQY
assay_value: 6.40

sequence: DEVDLYLLM
assay_value: 7.08

sequence: SENERGYYI
assay_value: 7.04

sequence: NELNYDNAGI
assay_value: 7.14

sequence: RENANQLVV
assay_value: 6.32
